Assay Summary: qHTS Assay for Lipid Storage Modulators (AID 1519)
Stated Conditions: Drosophila S3 cells, BODIPY lipid droplet/cell ratio, laser cytometry; measured here: lipid channel max response; cells loaded with oleic acid
Inconclusive results are not listed. Bridge positions count the residues as written; N and C are the ends. Square brackets hold non-standard residues; d marks the D form. Peptide text beside a SMILES is read from it. * marks the point of attachment. Ileψ(thiazoline)Cys = CC[C@H](C)[C@H](N)C1=N[C@H](C(=O)*)CS1; d(aIle) = CC[C@H](C)[C@@H](N)C(=O)O; dOrn = NCCC[C@@H](N)C(=O)O

Compound: S=C(NC1CCCCC1)N1CCC([C@H]2C=NC=N2)CC1
max response [%]: 2.69

Compound: COc1ccc(-c2coc3cc(O)ccc3c2=O)c(OC)c1
max response [%]: 3.26

Compound: CC(C)CCCC(C)C1CCC2C3CC=C4CC(O)CC[C@@]4(C)C3CC[C@@]12C (stereo partly drawn)
max response [%]: -8.92

Compound: CC[C@H](C)[C@H](N)C1=N[C@H](C(=O)N[C@@H](CC(C)C)C(=O)N[C@@H](CCC(=O)O)C(=O)N[C@@H](C(=O)N[C@H]2CCCCNC(=O)[C@@H](CC(N)=O)NC(=O)[C@@H](CC(=O)O)NC(=O)[C@@H](Cc3cnc[nH]3)NC(=O)[C@@H](Cc3ccccc3)NC(=O)[C@@H]([C@@H](C)CC)NC(=O)[C@@H](CCCN)NC2=O)[C@@H](C)CC)CS1 ({Ileψ(thiazoline)Cys}-LE[d(aIle)]K[dOrn][d(aIle)][dF][dH][dD][dN]; lactam 4-C)
max response [%]: -6.65

Compound: COC(=O)CC1C2(C)CC34OC5(C)O[C@@]6(C7/C(=C(/O)C(C)C)C(=O)OC(c8ccoc8)[C@]7(C)C(OC(C)=O)C(OC(C)=O)[C@]6(O5)[C@@]13C)C(OC(C)=O)[C@]4(O)C2OC(=O)C(C)C (stereo partly drawn)
max response [%]: 29.3

Compound: CC(=O)NC(CC(=O)O)C(=O)O (stereo not drawn)
max response [%]: 18

Compound: CCC(=O)OCC(=O)[C@@]1(OC(=O)CC)[C@H](C)C[C@@H]2[C@@H]3[C@H]([C@@H](O)C[C@@]21C)[C@]1(C)C=CC(=O)C=C1C[C@@H]3Cl
max response [%]: -12.3

Compound: C=C1C(=O)OC2CC1C(OC(C)=O)CC(C)=CCCC(C)=CCC[C@@]2(C)O (stereo partly drawn)
max response [%]: 14.3

Compound: NCCC(=O)N[C@@H](Cc1cnc[nH]1)C(=O)O
max response [%]: -9.96

Compound: CC1(C)CC[C@]2(C)CC[C@@]3(C)C(=CCC4[C@@]5(C)CCC(O)C(C)(C)C5CC[C@@]43C)C2C1 (stereo partly drawn)
max response [%]: 24.3

Compound: CC(Oc1ccccc1)C(=O)NC1C(=O)N2C(C(=O)O)C(C)(C)S[C@@H]12 (stereo partly drawn)
max response [%]: 21.7

Compound: Cc1cc(=O)oc2cc(O[C@@H]3O[C@H](C(=O)O)[C@@H](O)[C@H](O)[C@H]3O)ccc12
max response [%]: 16.3

Compound: C/C=C1\C2C=C(C)C[C@@]1(N)c1ccc(=O)[nH]c1C2
max response [%]: 26.4

Compound: COC1C[C@@H](O[C@@H]2C(C)C(=O)OC(C)C(C)[C@H](OC(C)=O)C(C)C(=O)[C@@]3(CO3)CC(C)C(OC3OC(C)CC(N(C)C)[C@H]3OC(C)=O)C2C)OC(C)[C@@H]1OC(C)=O (stereo partly drawn)
max response [%]: 24.4

Compound: CC(C)=CCC[C@](C)(O)C1CC=C(C)CC1 (stereo partly drawn)
max response [%]: 4.12

Compound: NCC1CCCCC1CC(=O)O (stereo not drawn)
max response [%]: 26.7

Compound: C[C@@]12CC[C@@H]3c4ccc(O)cc4CC[C@H]3[C@H]1C[C@@H](O)[C@H]2O
max response [%]: -7.07

Compound: O=S(=O)(O)c1cc(N=C=S)ccc1/C=C/c1ccc(N=C=S)cc1S(=O)(=O)O
max response [%]: 10.3

Compound: COc1ccc2c(c1OC)C(=O)O[C@H]2C1c2c(cc3c(c2OC)OCO3)CCN1C (stereo partly drawn)
max response [%]: 32.4

Compound: NCC1O[C@@H](O[C@@H]2C(O)[C@H](O[C@H]3OC(CO)C(O)C(N)C3O)[C@@H](N)C[C@H]2N)C(N)C(O)C1O (stereo partly drawn)
max response [%]: 32.5

Compound: CCCCCC1C(=O)CCC1CC(=O)OC (stereo not drawn)
max response [%]: 16

Compound: COC(=O)CC1C(C)(C)C(O)C2CC3=C4C=C(OC)OC(c5ccoc5)[C@]4(C)CCC3[C@@]1(C)C2=O (stereo partly drawn)
max response [%]: 3.16

Compound: C=C1C(N)CC2CC1C2(C)C (stereo not drawn)
max response [%]: 14.9
